Reference for the values: ChEMBL document CHEMBL1201862

Catalogue of compounds with associated GI50
- Test system: MDA-MB-435
- method: NCI tumour cell line growth inhibition, 48 h
Calls of active or inactive are those of the source. Cut-off read from the data, not from the text of the source: active = GI50 up to about 1.1 µM and inactive = higher.
recorded endpoint: GI50

1) Oc1cc(Br)cc2cc(Br)cnc12 = 3.44 µM (inactive)
2) CCCCC/C(=N\c1[nH]cnc1C(N)=O)OCC = > 100 µM (inactive)
3) CCN(CC)C1=Nc2ccccc2-n2c(C)cnc2C1 = > 100 µM (inactive)
4) Fc1ccc(C(OCCN2CCC3CCC(C2)N3C/C=C/c2cccnc2)c2ccc(F)cc2)cc1 (stereo unspecified) = 11.1 µM (inactive)
5) O=c1c2cc(-c3ccccc3)cnc2sn1-c1ccc([N+](=O)[O-])cc1 = 42.3 µM (inactive)
6) c1cc2c(cc1NC1=NCCO1)CCC2 = 8.04 µM (inactive)
7) O=C(O)c1ccc(Nc2nc3cc(C(F)(F)F)ccc3nc2-c2ccccc2)cc1 = 31.6 µM (inactive)
8) CC1=C2C(=C[C@H]3[C@]4(C)CCCC(C)(C)[C@H]4CC[C@]34O[C@H]24)OC1=O = > 100 µM (inactive)
9) CN1C[C@H]2[C@@H](C1=O)[C@H](c1ccccc1)ON2C = > 100 µM (inactive)
10) C/C(=C\c1ccc(Cl)cc1)C(C)(C)C(=O)O = > 100 µM (inactive)
11) c1ccc(CCCN2C3CCC2CN(CCOC(c2ccccc2)c2ccccc2)C3)cc1 = 12.4 µM (inactive)

###

- Tested on: DU-145
- method: NCI tumour cell line growth inhibition, 48 h
Activity calls are given as the source filed them. Rule as the data show it: active = GI50 up to about 1.1 µM and inactive = higher.
recorded endpoint: GI50

1. CCOC(=O)N1C=CC(=C2C(=C3C=CN(C(=O)OCC)C=C3)C(=C3C=CN(C(=O)OCC)C=C3)C2=C2C=CN(C(=O)OCC)C=C2)C=C1 = 35.3 µM (inactive)
2. CCOP1(=O)C=C(Sc2ccc([N+](=O)[O-])cc2[N+](=O)[O-])C(C)(C)O1 (stereo not given) = 13.4 µM (inactive)
3. O=C1c2ccc3c4ccc5c6c(ccc(c7ccc(c2c37)C(=O)N1CCN1CCCCC1)c64)C(=O)N(CCN1CCCCC1)C5=O = > 100 µM (inactive)
4. CSc1nc2c(c(=O)[nH]1)N=C(c1ccc([N+](=O)[O-])cc1)CC(c1ccccc1)N2 (stereo not given) = 86.1 µM (inactive)
5. C=CCN1CCN([C@H](c2ccc(C(=O)N(CC)CC)cc2)c2cccc(OC)c2)CC1 = > 25 µM (inactive)
6. COc1cc2c3c(c1O)C1(C=CC(=O)C=C1)CC3N(C)CC2 (stereo not given) = 13.2 µM (inactive)
7. c1ccc(CCCN2C3CCC2CN(CCOC(c2ccccc2)c2ccccc2)C3)cc1 = 16.4 µM (inactive)
8. Cc1ccc(C)c(NC(=O)C(Cc2c[nH]c3ccccc23)NC(=O)OCc2ccccc2)c1 (stereo not given) = 13.5 µM (inactive)
9. O=c1c2c3c(sc2nc2n1N=CN(c1ccc(Cl)cc1)C2)CCCC3 = 21.3 µM (inactive)
10. COC1(c2cccs2)c2ccccc2C(OC)(c2cccs2)c2ccccc21 (stereo not given) = 71 µM (inactive)
11. CN1C[C@H]2[C@@H](C1=O)[C@H](c1ccccc1)ON2C = > 100 µM (inactive)
12. COC(=O)C1=C(C)NC2(C)OC(C)(O)C(C(C)=O)C12C(C)=O (stereo not given) = > 100 µM (inactive)
13. Cc1cccc(/C(Br)=C2/OC(=O)c3ccccc32)c1 = > 100 µM (inactive)
14. O=C(c1ccccc1)c1ccc2nc3n(c2c1)C(c1c(F)cccc1F)SC3 (stereo not given) = 11.3 µM (inactive)
15. COc1ccc(/C=N/n2c(-c3ccccc3)n[nH]c2=O)cc1 = > 100 µM (inactive)
16. CC1C(c2ccccc2)OP(=O)(OC(C#N)c2ccccc2)N1C (stereo not given) = > 100 µM (inactive)
17. O=C(O)c1ccc(Nc2nc3cc(C(F)(F)F)ccc3nc2-c2ccccc2)cc1 = 25.8 µM (inactive)
18. O=C(CNS(=O)(=O)Cc1ccccc1)NNc1ccccc1 = > 100 µM (inactive)
19. O=C(Nc1ccccc1)OCCN=C1c2ccccc2CCc2ccccc21 = 24.5 µM (inactive)
20. N#CC(NC12CC3CC(CC(C3)C1)C2)c1ccccc1 (stereo not given) = > 100 µM (inactive)
